Source: patent US20250154525A1

- Tested on: HuVec Cells
- protocol_notes: GFP plasmid transfection with DOTMA/DOPE plus plant virus movement protein derived peptides (Example 2)
- Assay type: cell-based
- experimental_parameters: Transfection Agent 2 μl, 42 hours
Task for the reader: assign each of the following substances its reported Relative Fluorescence of Transfection of HuVEC Cells.
One number for each entry, in Rf.

Some substances with known Relative Fluorescence of Transfection of HuVEC Cells results, for comparison:
- substance: "540 (RRRRRRRRRRRRVDYGKWERKPIRCASMSR) [compound 540]"
  obs_value: 44744
- substance: "542 (KKKKKKKKKKKKKKKKGKWERKPIRCAS) [compound 542]"
  obs_value: 42546
- substance: "543 (RRRRRRRRRRRRVDFSHVDYGKWERKPIRCASMSRLGLRG) [compound 543]"
  obs_value: 42802

Give Relative Fluorescence of Transfection of HuVEC Cells for all substances that follow.
1. 545 (KSVPNRTRTYIKLKRLRFKGAPYKAWRRRRRRRRRRRR) [compound 545]
2. 547 (SYVKTVPNRTRTYIKGGGGGRRRRRRRRRRRR) [compound 547]
3. 109 (RRRRRRRRRRRR) [compound 109]
4. 544 (GVKRSYGAARGDDRRRPNVVAPYKAWRRRRRRRRRRRR) [compound 544]
5. 546 (RTGVKRSYGAARGDDRRRPNVVRRRRRRRRRRRR) [compound 546]

OUTPUT:
1. 46890
2. 28255
3. 25421
4. 31245
5. 37899

---

- System: HeLa Cells
- protocol_notes: GFP plasmid transfection with DOTMA/DOPE plus surface ligand peptide, fluorescent plate reader (Example 1)
- Type: cell-based
- experimental_parameters: DOTMA/DOPE + peptide linked to R12 or K16; EF1Alpha eGFP plasmid; 42 hours
Please use Fulfilled whenever Relative Fluorescence of Transfection of HeLa Cells (RF) is not below 7000, and Not fulfilled whenever it is.

Please review the entries below; each comes with its answer.
- substance: "360 (GDLGRPGRKGRPGPP) [compound 360]"
  discrete_label: "Fulfilled"
- substance: "341 (LRAHAVDVNG) [compound 341]"
  discrete_label: "Not fulfilled"
- substance: "344 (KGHRGF) [compound 344]"
  discrete_label: "Fulfilled"
- substance: "226 (ANGQTPIQRYIK) [compound 226]"
  discrete_label: "Fulfilled"
- substance: "332 (TWYKIAFQRNRK) [compound 332]"
  discrete_label: "Fulfilled"
- substance: "335 (TVFSVDQDNMLE) [compound 335]"
  discrete_label: "Fulfilled"
- substance: "503 (TAGSCLRKFSTMRRRRRRRRRRRR) [compound 503]"
  discrete_label: "Fulfilled"
- substance: "239 (KNSFMALYLSKGRLVFALG) [compound 239]"
  discrete_label: "Not fulfilled"
- substance: "375 (LAGSCLPVFSTL) [compound 375]"
  discrete_label: "Fulfilled"
- substance: "216 (YRVRVTPKEKTGPMKE) [compound 216]"
  discrete_label: "Not fulfilled"

INPUT: Is Relative Fluorescence of Transfection of HeLa Cells (RF) at least 7000? Consider 323 (HQQDLGTAGSCLRKFSTMFLF) [compound 323]
OUTPUT: Fulfilled

INPUT: Given 381 (TAGSCL) [compound 381] , state whether its Relative Fluorescence of Transfection of HeLa Cells (RF) is at least 7000.
OUTPUT: Fulfilled
